Study system: T1, human CD71 extracellular domain (human, UniProt P02786 89-760)
T1 construct: also called hCD71; CD71-ECD
T1 sequence (P02786 89-760): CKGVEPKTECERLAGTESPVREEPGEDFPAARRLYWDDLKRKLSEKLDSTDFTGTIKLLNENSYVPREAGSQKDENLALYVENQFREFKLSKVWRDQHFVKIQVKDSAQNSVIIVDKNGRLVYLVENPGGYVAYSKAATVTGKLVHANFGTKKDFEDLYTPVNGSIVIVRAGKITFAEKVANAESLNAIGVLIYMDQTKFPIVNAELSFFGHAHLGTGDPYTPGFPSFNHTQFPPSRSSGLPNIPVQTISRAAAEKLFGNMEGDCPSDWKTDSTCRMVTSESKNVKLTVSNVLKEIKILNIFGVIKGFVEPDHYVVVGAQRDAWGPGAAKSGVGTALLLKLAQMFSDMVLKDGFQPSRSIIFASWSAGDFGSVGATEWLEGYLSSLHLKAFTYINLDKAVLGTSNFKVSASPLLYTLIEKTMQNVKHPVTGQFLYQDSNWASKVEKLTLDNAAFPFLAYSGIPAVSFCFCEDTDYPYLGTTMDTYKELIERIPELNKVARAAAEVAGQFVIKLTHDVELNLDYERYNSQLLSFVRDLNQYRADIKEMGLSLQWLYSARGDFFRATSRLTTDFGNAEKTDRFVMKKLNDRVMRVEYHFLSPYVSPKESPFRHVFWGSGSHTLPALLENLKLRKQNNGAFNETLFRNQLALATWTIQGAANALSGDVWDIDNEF
Assay remarks: primary ELISA screen, Screen 4; signal on hCD71 over signal on HSA
Measured hCD71:HSA, listed per entry.
Numbers only; they are read as ratio.

Check out these entries, answers already filled in.
Binder	Measurement units	Data value
CD71-binding FN3 domain of SEQ ID NO: 548 (designed binder) MLPAPKNLVVSRVTEDSARLSWTAPDAAFDSFFIGYLEPQPPGEAIYLFVPGSERSYDLTGLKPGTEYNVTIQGVKGGFPSMPLSAIFTT	ratio	230
CD71-binding FN3 domain of SEQ ID NO: 547 (designed binder) MLPAPKNLVVSRVTEDSARLSWTAPDAAFDSFFIGYLEPQPPGEAIHLIVPGSERSYDLTGLKPGTEYNVTIQGVKGGFPSDPLVASFTT	ratio	277
CD71-binding FN3 domain of SEQ ID NO: 550 (designed binder) MLPAPKNLVVSRVTEDSARLSWTAPDAAFDSFFIGYLEPQPPGEAIHLFVPGSERSYDLTGLKPGTEYNVTIQGVKGGFPSIPLYARFTT	ratio	141

// next entry
For reference, reported hCD71:HSA for CD71-binding FN3 domain of SEQ ID NO: 551 (designed binder) MLPAPKNLVVSRVTEDSARLSWTAPDAAFDSFEIAYFETCRTGEAIVLTVPGSERSYDLTGLKPGTEYWVQIGGVKGGNWSAPLSAIFTT stands at 45
